# TARGET DESC: T1, human G-protein-coupled receptor family C group 5 member D (GPRC5D) (human, UniProt Q9NZD1 1-345)
# T1 construct: whole, on cells; also called human GPRC5D protein
# T1 sequence (Q9NZD1 whole entry): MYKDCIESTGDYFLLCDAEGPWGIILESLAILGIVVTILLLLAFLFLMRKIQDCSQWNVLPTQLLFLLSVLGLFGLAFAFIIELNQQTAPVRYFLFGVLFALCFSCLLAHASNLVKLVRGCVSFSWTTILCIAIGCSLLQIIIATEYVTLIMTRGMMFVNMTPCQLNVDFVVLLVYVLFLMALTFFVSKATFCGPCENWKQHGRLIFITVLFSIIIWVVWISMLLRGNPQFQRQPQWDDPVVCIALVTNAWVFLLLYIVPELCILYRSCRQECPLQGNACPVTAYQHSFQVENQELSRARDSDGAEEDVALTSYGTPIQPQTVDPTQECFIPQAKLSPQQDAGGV
# METHOD: FACS, CHO-K1/GPRC5D
The following binders are listed with their measured Top values.

{"BINDER": "6-H4L3 (antibody, V domains shown, humanized 6G10D9, VH v4 x VL v3) VH: QVQLVQSGAEVAKPGASVKMSCKASGYTFTTYTMHWVKQAPGQGLEWLGYINPSSGYTNYNQKFKDRVTLTADTSTSTVYMELSSLRSEDTAVYYCASLRSRGYFDYWGQGTLLTVSS VL: DIQMTQSPSFLSTSVGDRVTITCKASQNVGTAVVWYQQKPGKSPKLLIYSASNRYTGVPSRFSGSGSGTEFTLTISSMQPEDFATFFCQQYSSYPYTFGQGTKLEIK", "Top": 126000}
{"BINDER": "6-H4L1 (antibody, V domains shown, humanized 6G10D9, VH v4 x VL v1) VH: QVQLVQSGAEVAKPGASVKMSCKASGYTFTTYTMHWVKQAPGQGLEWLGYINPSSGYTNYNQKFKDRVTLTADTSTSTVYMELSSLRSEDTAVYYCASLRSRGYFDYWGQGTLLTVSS VL: DIQLTQSPSFLSASVGDRVTITCKASQNVGTAVVWYQQKPGKAPKLLIYSASNRYTGVPSRFSGSGSGTEFTLTISSLQPEDFATYYCQQYSSYPYTFGQGTKLEIK", "Top": 50300}
{"BINDER": "6-H3L1 (antibody, V domains shown, humanized 6G10D9, VH v3 x VL v1) VH: QVQLVQSGAEVAKPGASVKVSCKASGYTFTTYTMHWVKQAPGQGLEWLGYINPSSGYTNYNQKFKDRVTMTADTSTSTVYMELSSLRSEDTAVYYCASLRSRGYFDYWGQGTLVTVSS VL: DIQLTQSPSFLSASVGDRVTITCKASQNVGTAVVWYQQKPGKAPKLLIYSASNRYTGVPSRFSGSGSGTEFTLTISSLQPEDFATYYCQQYSSYPYTFGQGTKLEIK", "Top": 74300}
{"BINDER": "6G10D9-XI (antibody, V domains shown, also called 6G10D9 (chimeric); 6G1009-X1) VH: QVQLQQSGAELARPGASVKMSCKASGYTFTTYTMHWVKQRPGQGLEWLGYINPSSGYTNYNQKFKDKATLTAGKSSSTAYMQLSSLTSEDSAVYYCASLRSRGYFDYWGQGTTLTVSS VL: DIVMTQSQTFMSTSVGDRVRITCKASQNVGTAVVWYQQKTGQSPRLLIYSASNRYTGVPDRFTGSGSGTDFTLTISNMQSEDLADFFCQQYSSYPYTFGGGTKLEIK", "Top": 122000}
{"BINDER": "6-H3L3 (antibody, V domains shown, humanized 6G10D9, VH v3 x VL v3) VH: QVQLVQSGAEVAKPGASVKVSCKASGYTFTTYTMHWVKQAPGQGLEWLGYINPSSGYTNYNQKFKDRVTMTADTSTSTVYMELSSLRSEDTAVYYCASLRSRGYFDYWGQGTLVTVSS VL: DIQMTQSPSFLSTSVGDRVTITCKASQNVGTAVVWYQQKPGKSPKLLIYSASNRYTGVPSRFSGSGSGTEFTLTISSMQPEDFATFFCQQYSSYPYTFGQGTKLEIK", "Top": 119000}
{"BINDER": "6-H4L2 (antibody, V domains shown, humanized 6G10D9, VH v4 x VL v2) VH: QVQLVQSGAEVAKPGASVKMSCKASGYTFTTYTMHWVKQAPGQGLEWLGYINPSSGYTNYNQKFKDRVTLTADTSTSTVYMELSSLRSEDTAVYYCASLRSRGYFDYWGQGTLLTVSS VL: DIQLTQSPSFLSTSVGDRVTITCKASQNVGTAVVWYQQKPGKSPKLLIYSASNRYTGVPSRFSGSGSGTEFTLTISSLQPEDFATFYCQQYSSYPYTFGQGTKLEIK", "Top": 39400}
{"BINDER": "6-H3L2 (antibody, V domains shown, humanized 6G10D9, VH v3 x VL v2) VH: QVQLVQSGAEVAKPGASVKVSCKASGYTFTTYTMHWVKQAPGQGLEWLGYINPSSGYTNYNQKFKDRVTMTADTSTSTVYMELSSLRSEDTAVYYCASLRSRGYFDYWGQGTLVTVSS VL: DIQLTQSPSFLSTSVGDRVTITCKASQNVGTAVVWYQQKPGKSPKLLIYSASNRYTGVPSRFSGSGSGTEFTLTISSLQPEDFATFYCQQYSSYPYTFGQGTKLEIK", "Top": 47500}
